# Test system: E. coli TESEC Mtb Asd
# Protocol notes: growth (OD600 after 10 h); higher = more growth (less inhibition)
# Experimental conditions: arabinose induction (level): Low; compound 0.1 mM; raw OD600 reference: median of DMSO wells 0.417, cell-free background 0.041
Structures can show the parent of a compound that is named as a salt.
Let's look at some compounds and their measured growth.
Please give the numeric answer without any surrounding text.

Would you please look over these solved cases?
Compound | Numeric result
CNNCc1ccc(C(=O)NC(C)C)cc1 [Procarbazine hydrochloride] | 0.476
NC(N)=Nc1nc(CSCC/C(N)=N/S(N)(=O)=O)cs1 | 0.436
CCOC(=O)C1=C[C@]2(CC)CCCN3CCc4c(n1c1ccccc41)[C@@H]32 | 0.379
CC(=O)N[C@@H](CC(C)C)C(=O)O | 0.476
CCCCC[C@H](O)/C=C/[C@H]1[C@H](O)CC(=O)[C@@H]1CCCCCCC(=O)O | 0.279

Problem: Reported growth for c1ccc(CNc2ncnc3nc[nH]c23)cc1 : what is it?
Result: 0.339

Problem: Try this compound too: NC[C@H]1O[C@H](O[C@H]2[C@H](O)[C@@H](O[C@H]3O[C@H](CO)[C@@H](O)[C@H](N)[C@H]3O)[C@H](N)C[C@@H]2N)[C@H](N)C[C@@H]1O
Result: 0.0468

Problem: Next record, please: c1ccc([C@H]2CN3CCSC3=N2)cc1 [Levamisole hydrochloride]
Result: 0.428

Problem: Same question, CC(=O)OCC(=O)[C@@]1(O)[C@H](C)C[C@H]2[C@@H]3CCC4=CC(=O)C=C[C@]4(C)[C@@]3(F)[C@@H](O)C[C@@]21C [Dexamethasone acetate] this time
Result: 0.356

Problem: O=C(O)CCNC(=O)c1ccc(/N=N/c2ccc(O)c(C(=O)O)c2)cc1 [Balsalazide Sodium] ?
Result: 0.434

====

# Tested on: E. coli TESEC Mtb Alr
# Protocol notes: growth (OD600 after 10 h); higher = more growth (less inhibition)
# Experimental conditions: arabinose 1000000 nM; compound 0.1 mM; raw OD600 reference: median of DMSO wells 0.193, cell-free background 0.041
Structures can show the parent of a compound that is named as a salt.
Measured growth by item
Field format: numeric only.

Some solved cases for reference:
Molecule | growth
CC(C)c1c(C(=O)Nc2ccccc2)c(-c2ccccc2)c(-c2ccc(F)cc2)n1CC[C@@H](O)C[C@@H](O)CC(=O)O [Atorvastatin] | 0.0909
COc1ccccc1OCC(O)COC(N)=O (stereo unspecified) [Methocarbamol] | 0.187
CNC(=C[N+](=O)[O-])NCCSCc1csc(CN(C)C)n1 [Nizatidine] | 0.189
CC1c2cccc(O)c2C(O)=C2C(=O)C3(O)C(O)=C(C(N)=O)C(=O)C(N(C)C)C3C(O)C21 (stereo unspecified) [Doxycycline hydrochloride] | 0.0487
Cc1cccc(C)c1NC(=O)CN1CCN(CCCC(c2ccc(F)cc2)c2ccc(F)cc2)CC1 [Lidoflazine] | 0.174

Problem: Give its growth value. Item: CO[C@@]1(NC(=O)CSCC#N)C(=O)N2C(C(=O)O)=C(CSc3nnnn3C)CS[C@@H]21 [Cefmetazole sodium salt]
Result: 0.0397

Problem: Further, for CC(C(=O)O)c1ccc(C(=O)c2cccs2)cc1 (stereo unspecified) [Suprofen] ?
Result: 0.214

Problem: Next entry: Cc1cc(/C=C/c2ccc3cc(N(C)C)ccc3[n+]2C)c(C)n1-c1ccccc1 [Pyrvinium pamoate]
Result: 0.0511

Problem: Next record, please: Cc1ccccc1N1C(=O)c2cc(S(N)(=O)=O)c(Cl)cc2NC1C (stereo unspecified) [Metolazone]
Result: 0.136

Problem: Also CCCC(C(=O)OCCN(CC)CC)(c1ccccc1)c1ccccc1 [Proadifen hydrochloride] ?
Result: 0.0416

Problem: Next up: CCCOc1ccccc1-c1nc2[nH]nnc2c(=O)[nH]1 [Zaprinast]
Result: 0.173

Problem: Record: CC[C@H](C)C(=O)O[C@H]1C[C@@H](C)C=C2C=C[C@H](C)[C@H](CC[C@@H]3C[C@@H](O)CC(=O)O3)[C@H]21 [Lovastatin]
Result: 0.0567

Problem: Ok, now Cn1cnc([N+](=O)[O-])c1Sc1ncnc2[nH]cnc12 [Azathioprine]
Result: 0.0691

====

Below, each entry is listed alongside its reported growth.
# System: E. coli TESEC Mtb Alr
# Protocol notes: growth (OD600 after 10 h); higher = more growth (less inhibition)
# Experimental conditions: arabinose 100 nM; compound 0.1 mM; raw OD600 reference: median of DMSO wells 0.413, cell-free background 0.052
Where a name gives a salt, the structure may show the parent alone.
Number only, please.

Compound | growth
c1ccc2c(c1)CCCc1cc(NCCN3CCOCC3)nnc1-2 | 0.409
CC1CCc2c(N3CCC(O)CC3)c(F)cc3c(=O)c(C(=O)O)cn1c23 (configuration not stated) | 0.0535
Cc1c(NC(=O)c2cccnc2)c(=O)n(-c2ccccc2)n1C | 0.413

Problem: State the recorded growth for this entry: CN[C@@H]1[C@H](O[C@H]2[C@H](O[C@H]3[C@H](O)[C@@H](O)[C@H](NC(=N)N)[C@@H](O)[C@@H]3NC(=N)N)O[C@@H](C)[C@]2(O)CO)O[C@@H](CO)[C@H](O)[C@H]1O [Dihydrostreptomycin sulfate]
Result: 0.0553

Problem: Check CNCCC=C1c2ccccc2CCc2ccccc21 [Nortriptyline hydrochloride] too.
Result: 0.408

Problem: Try CC(CN1c2ccccc2Sc2ccccc21)N(C)C (configuration not stated) [Promethazine hydrochloride] next.
Result: 0.409

Problem: Entry CC(=O)c1ccc2c(c1)N(CCCN(C)C)c1ccccc1S2 [Acetopromazine maleate salt] please
Result: 0.399

====

# Test system: E. coli TESEC Mtb Alr
# Protocol notes: growth (OD600 after 10 h); higher = more growth (less inhibition)
# Experimental conditions: arabinose 100 nM; compound 0.1 mM; raw OD600 reference: median of DMSO wells 0.413, cell-free background 0.052
Where a name gives a salt, the structure may show the parent alone.
Outcome measure: growth
Output: the number by itself.

Use these answered entries as a reference point.
Compound | Numeric result
CCN(CCCc1ccccc1)CCCc1ccccc1 [Alverine citrate salt] | 0.418
CC[C@H](C)[C@H](N)C1=N[C@H](C(=O)N[C@@H](CC(C)C)C(=O)N[C@H](CCC(=O)O)C(=O)N[C@H](C(=O)N[C@H]2CCCCNC(=O)[C@H](CC(N)=O)NC(=O)[C@@H](CC(=O)O)NC(=O)[C@H](Cc3cnc[nH]3)NC(=O)[C@@H](Cc3ccccc3)NC(=O)[C@H]([C@@H](C)CC)NC(=O)[C@@H](CCCN)NC2=O)[C@@H](C)CC)CS1 [Bacitracin] | 0.421

Now look at this one.
Problem: What measured growth is associated with C[C@]12CC[C@@H]3c4ccc(O)cc4C[C@@H](CCCCCCCCC[S+]([O-])CCCC(F)(F)C(F)(F)F)[C@H]3[C@@H]1CC[C@@H]2O (stereo partly drawn) [Fulvestrant] on E. coli TESEC Mtb Alr?
Result: 0.413

====

# System: E. coli TESEC Mtb Alr
# Protocol notes: growth (OD600 after 10 h); higher = more growth (less inhibition)
# Experimental conditions: arabinose 100000 nM; compound 0.1 mM; raw OD600 reference: median of DMSO wells 0.201, cell-free background 0.041
Structures can show the parent of a compound that is named as a salt.
growth by entry:
Answer field: number only, no words.

Compound | Outcome measure | Numeric result
Nc1c2ccccc2nc2ccccc12 [Aminacrine] | growth | 0.043
CCCCCN(CCCCC)C(=O)C(CCC(=O)O)NC(=O)c1ccc(Cl)c(Cl)c1 (centres undefined) [Lorglumide sodium salt] | growth | 0.158
OC(c1cc(C(F)(F)F)nc2c(C(F)(F)F)cccc12)C1CCCCN1 (centres undefined) [Mefloquine hydrochloride] | growth | 0.0403

Next item in the queue.
Problem: Dear colleague, I am looking for the recorded growth of the following compound: CN(C)CCC=C1c2ccccc2COc2ccccc21 [Doxepin hydrochloride]
Result: 0.178

====

# Test system: E. coli TESEC Mtb DapB
# Protocol notes: growth (OD600 after 10 h); higher = more growth (less inhibition)
# Experimental conditions: arabinose induction (level): Low; compound 0.1 mM; raw OD600 reference: median of DMSO wells 0.227, cell-free background 0.041
Where a name gives a salt, the structure may show the parent alone.
Outcome measure: growth
Form rule: numeric answer, no unit written next to it.

Study these solved cases before continuing.
Compound | growth
CC(=O)OCC(=O)[C@@]12OC3(CCCC3)O[C@@H]1C[C@H]1[C@@H]3CCC4=CC(=O)C=C[C@]4(C)[C@@]3(F)[C@@H](O)C[C@@]12C [Amcinonide] | 0.265
N=C(N)NC(=N)NCCc1ccccc1 [Phenformin hydrochloride] | 0.211
CCCCC1C(=O)N(c2ccccc2)N(c2ccc(O)cc2)C1=O (stereo not given) [Oxyphenbutazone] | 0.229
Nc1nc2c(ncn2COC(CO)CO)c(=O)[nH]1 [Ganciclovir] | 0.245

As a next step, examine the compound that follows.
Problem: Requested field: growth. Item: Nc1ncnc2c1ncn2[C@@H]1O[C@H](CO)[C@@H](O)[C@@H]1O [Vidarabine]
Result: 0.21
